Exercise: for every item that follows, state its recorded inhibition.
- System name: cAMP-dependent protein kinase catalytic subunit PRKX (Homo sapiens) (UniProt P51817);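 also: each value is the mean percent inhibition of the kinase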
- Sequence (P51817 whole entry): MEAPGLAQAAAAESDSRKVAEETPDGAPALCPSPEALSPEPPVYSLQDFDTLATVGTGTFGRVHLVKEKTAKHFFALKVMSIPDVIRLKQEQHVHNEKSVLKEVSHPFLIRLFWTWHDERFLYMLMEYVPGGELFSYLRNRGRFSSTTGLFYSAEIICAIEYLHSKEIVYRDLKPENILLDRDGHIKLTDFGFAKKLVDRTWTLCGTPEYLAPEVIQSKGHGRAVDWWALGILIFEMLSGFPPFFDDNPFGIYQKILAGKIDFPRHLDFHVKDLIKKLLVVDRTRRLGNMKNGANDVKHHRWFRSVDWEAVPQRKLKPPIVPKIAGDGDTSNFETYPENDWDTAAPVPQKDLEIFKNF
- Study conditions: at 1 µM
Answers are plain numbers, in %.

Example entries begin here.
• CN(C)CCCn1c(-c2nonc2N)nc2cnccc21 = 3.97
• Cc1ccc(O)cc1Nc1ccnc2ccc(S(C)(=O)=O)cc12 = 4.14
• COC(=O)c1cncc(/C=C/c2c(C)cc(O)cc2C)c1 = 3.76
• Cc1ccc(C(=O)NC2CC2)cc1-c1ccc2[nH]ncc2c1 = -0.54
• NS(=O)(=O)c1ccc(N/N=C2\C(=O)Nc3ccc(Cl)cc32)cc1 = 7.86

// for each molecule below, give its inhibition
1. CN1CCN(C(=O)c2ccc(NC(=O)Nc3ccc(N(C)c4ccnc(Nc5ccc(CS(C)(=O)=O)cc5)n4)cc3)cc2)CC1
2. NS(=O)(=O)c1ccc(Nc2cc(-c3cccc(O)c3)n[nH]2)cc1
3. CCn1c(-c2nonc2N)nc2ccc(F)cc21
4. Cc1ccc(NC(=O)CC2CC2)cc1-c1ccc(C(=O)NCC2CC2)cc1
5. CC(C)c1ccc2c(c1)NC(=O)/C2=N/Nc1ccc(S(N)(=O)=O)cc1
6. ON=C1CCc2cc(-c3nc(C4CCNCC4)[nH]c3-c3ccncc3)ccc21

1. 0.77
2. 2.25
3. 6.51
4. 2.19
5. -0.32
6. -2.69

// each listed molecule needs a value for inhibition
1. COc1cc(Nc2nccc(-c3cnn4ncccc34)n2)cc(OC)c1
2. O=C(Nc1ccc(Oc2ccc3[nH]c(NC(=O)c4ccco4)nc3c2)cc1)Nc1cc(C(F)(F)F)ccc1F
3. CN(C)C(=O)O[C@@H]1CN[C@@H](C#Cc2cc3ncnc(Nc4ccc(OCc5cccc(F)c5)c(Cl)c4)c3s2)C1
4. O=S(=O)(CCOCc1ccc(-c2ccc3ncnc(Nc4ccc(OCc5cccc(F)c5)c(Cl)c4)c3c2)o1)c1ccccc1

1. 0.29
2. 4.61
3. -1.92
4. 1.09

###

- System name: cAMP-dependent protein kinase catalytic subunit alpha (Homo sapiens);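 also: reported value is the mean percent inhibition of PKA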
- Study conditions: at 0.1 µM
Readout: inhibition (%)
One number for each entry, in %.

* CN1CCN(C(=O)c2ccc(NC(=O)Nc3ccc(N(C)c4ccnc(Nc5ccc(CS(C)(=O)=O)cc5)n4)cc3)cc2)CC1 | 1.2
* Nc1ccc(C#Cc2cncnc2Nc2ccc(OCc3cccc(F)c3)c(Cl)c2)cc1 | 3.59

Quick batch: inhibition for everything below.
1. CC(C)c1ccc2c(c1)NC(=O)/C2=N/Nc1ccc(S(N)(=O)=O)cc1
2. Cc1ccc(Nc2ccnc(Nc3cccc(C(N)=O)c3)n2)cc1O
3. Nc1nccc(-c2c(-c3ccc(F)cc3)nn3cc(C(F)(F)F)ccc23)n1

1.46
-1.93
0.74

// input: 7 compounds below; output: inhibition for each
1. COc1cc2ncn(-c3cc(OCc4ccccc4S(C)(=O)=O)c(C#N)s3)c2cc1OC
2. Cc1cc(O)cc(C)c1/C=C/c1cncc(C(=O)N(C)C)c1
3. N#Cc1cccc(Nc2nccc(-c3cnn4ncccc34)n2)c1
4. Cc1cc(-c2ccccn2)cc(C)c1/C=C/c1cncc(-c2nn[nH]n2)c1
5. CCS(=O)(=O)c1ccc(OC)c(Nc2ncc(-c3cccc(OC)c3)o2)c1
6. COc1cc(Nc2nccc(-c3cnn4ncccc34)n2)cc(OC)c1
7. NS(=O)(=O)c1ccc(NC=C2C(=O)Nc3ccc4ncsc4c32)cc1

[2.29, 1.98, 2.6, 1.63, 1.07, 2.46, 2.64]

For each of the compounds below, note its inhibition.
1. Cc1ccc(O)cc1Nc1ccnc2ccc(S(C)(=O)=O)cc12
2. OCc1ccc(-c2nc(-c3ccccn3)c(-c3ccc4c(c3)OCO4)[nH]2)cc1
3. C[C@@H](Oc1cc(-n2cnc3ccc(OC[C@@H](O)CO)cc32)sc1C(N)=O)c1ccccc1Cl
4. O=C1Nc2ccc(-c3cccnc3)cc2C1=Cc1cc(Br)c(O)c(Br)c1
5. CS(=O)(=O)Nc1cccc(-c2ccc3c(NC(=O)C4CC4)n[nH]c3c2)c1

1. 3.25
2. 1.99
3. -0.26
4. 1.62
5. 0.91
